The measured values listed here are drawn from patent US12459939B2.

measurement_description: In vivo pharmacokinetics in mice
protocol_conditions: male, Balb c, mouse, plasma, po, gavage, 5 mg/kg
Procedure: Six male SPF-grade SD rats or Balb c mice (Shanghai B&K laboratory animals) were divided into two groups and the test compounds were configured into suitable solutions or suspensions; one group was administered intravenously and one group was administered orally. […] The plasma samples were analyzed by LC-MS/MS. […]
Would you mind telling me the reported AUC of each entry?

compound=Cc1cc(F)cc(C)c1Oc1ccc(C(C)(C)O)cc1-c1cn(C)c(=O)c2cc(C(=O)NC3CC(F)(F)C3)[nH]c12 result="> 5 µM·h"

Lookup: What AUC value was documented for this compound, CCNC(=O)c1cc2c(=O)n(C)cc(-c3cc(C(C)(C)O)ccc3Oc3c(C)cc(F)cc3C)c2[nH]1 [compound 1, reference compound] ?
Found: > 5 µM·h

* * *

Test system: most AML cell lines and prostate cancer cell lines
measurement_description: Proliferation inhibition of different cell lines: AML and prostate cancer lines
Assay type: cell-based
protocol_conditions: read-out: proliferation inhibitory activity IC50
quantity_kind: IC50

Examples with their reported IC50 follow.
compound=Cc1cc(F)cc(C)c1Oc1ccc(C(C)(C)O)cc1-c1cn(C)c(=O)c2cc(C(=O)NCC(F)F)[nH]c12 result="< 1000 nM"
compound="CCNC(=O)c1cc2c(=O)n(C)cc(-c3cc(C(C)(C)O)ccc3Oc3c(C)cc(F)cc3C)c2[nH]1 [compound 1, reference compound]" result="< 1000 nM"

Lookup: Name the recorded IC50 for Cc1cc(F)cc(C)c1Oc1ccc(C(C)(C)O)cc1-c1cn(C)c(=O)c2cc(C(=O)NC3CC(F)(F)C3)[nH]c12 .
Found: < 1000 nM

* * *

measurement_description: Metabolic stability in mouse liver microsomes
Assay type: in vitro ADME
protocol_conditions: liver microsomes 0.5 mg/mL, NADPH, 1 μM compound, read-out: Mouse microsomal T1/2
Description: […]
quantity_kind: half-life at 1 μM (min)
Numbers only, in min.

Consider the reported half-life at 1 μM for these compounds:
compound=Cc1cc(F)cc(C)c1Oc1ccc(C(C)(C)O)cc1-c1cn(C)c(=O)c2cc(C(=O)NC3CC(F)(F)C3)[nH]c12 quantitative_result=76
compound="CCNC(=O)c1cc2c(-c3cc(C(C)(C)O)ccc3Oc3c(C)cc(F)cc3C)cn(C)c(=O)c2[nH]1 [compound 1, reference compound]" quantitative_result=19
compound=CCNC(=O)c1cc2c(=O)n(C)cc(-c3cc(C(C)(C)O)ccc3Oc3c(C)cc(F)cc3C)c2[nH]1 quantitative_result=170

Please look at the following compound next.
Lookup: Name the recorded half-life at 1 μM for Cc1cc(F)cc(C)c1Oc1ccc(C(C)(C)O)cc1-c1cn(C)c(=O)c2cc(C(=O)NCC(F)F)[nH]c12 .
Found: 39

* * *

Kindly state pIC50 for each of the entries shown.
test_system: BRD4-BD2 (Homo sapiens, UniProt O60885)
Construct: purchased ReactionBiologyCorp; (RBC)
measurement_description: BRD4 AlphaScreen determination (BD2)
Type: binding
protocol_conditions: AlphaScreen, protein binding inhibition; read-out: BRD4-BD2 IC50
Numbers only, as −log10 of the molar value.

Recorded pIC50, per entry:
item_smiles=COCCNC(=O)c1cc2c(=O)n(C)cc(-c3cc(C(C)(C)O)ccc3Oc3c(C)cc(F)cc3C)c2[nH]1 test_system="BRD4-BD2 (Homo sapiens, UniProt O60885)" quantity_kind=pIC50 quantitative_result=9.29
item_smiles=Cc1cc(F)cc(C)c1Oc1ccc(C(C)(C)O)cc1-c1cn(C)c(=O)c2cc(C(=O)NCC(F)F)[nH]c12 test_system="BRD4-BD2 (Homo sapiens, UniProt O60885)" quantity_kind=pIC50 quantitative_result=9.24

Next:
Lookup: GET /values?readout=pIC50&item= Cc1cc(F)cc(C)c1Oc1ccc(C(C)(C)O)cc1-c1cn(C)c(=O)c2cc(C(=O)N3CCC3)[nH]c12
Found: 8.13
